Hello, the source for this data is patent US20210253725A1, in case you need it.

Assign Functional assay IL-8 to each entry below.
tested.on: T1, CD134 expressed on the cell surface of HT1080_OX40 cells (human, UniProt P43489 29-277)
T1 sequence (looked up): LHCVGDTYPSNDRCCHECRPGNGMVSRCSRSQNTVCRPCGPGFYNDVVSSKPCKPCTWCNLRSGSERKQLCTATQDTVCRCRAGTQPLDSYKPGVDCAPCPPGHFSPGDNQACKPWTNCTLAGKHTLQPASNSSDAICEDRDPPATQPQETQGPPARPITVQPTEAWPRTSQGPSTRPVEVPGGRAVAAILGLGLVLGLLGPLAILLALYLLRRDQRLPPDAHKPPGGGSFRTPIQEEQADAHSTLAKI
method.summary: cell-based or functional assay; note: test concentration or dose not given here
Answers are plain numbers, in abs. corr..

// known answers, use as guide
>>> result_number("P018.S.05.A.G05 (antibody, V domains shown, V regions on human Ig constant parts; also called AB134_18) VH: QSVEESGGRLVTPGTPLTLTCTVSGIDLSNHGMGWFRQGPGKGLEWIGIIYIDGGASYASWVNGRFTISKTSTTVDLKITSPTTEDTATYFCARGIPSDGDSSYYYFNLWGQGTLVTVAS VL: DVVMTQTPASVEAAVGGTVTIKCQASQSVYNKYLSWFQQKPGQPPKLLIYRASTLESGVSSRFKGSGSGTEFTLTISDLESADAATYYCQNNNGAGDNTDYTFGGGTEVVVK")
2.62
>>> result_number("P018.S.11.A.C03 (antibody, V domains shown, V regions on human Ig constant parts; also called AB134_28) VH: QSVEESGGRLVTPGTPLTLTCKVSGFSLSTYDMIWVRQAPAKGLEYIGIIGGSGFTYYANWAKGRFTISKTSTTVDLKITSPTTEDTATYFCARNNYDMWGPGTLVTVSS VL: DVVMTQTPASVSEPVGGTVTIKCQASQSISNELAWHQQKPGQRPNLLIYGASTLESGVPSRFKGSRSGTEYTLTISDLESDDAATYYCQCTYYGSSYVGGAFGGGTEVVVK")
0.586

## Input # get_value(readout='Functional assay IL-8', item= P018.S.12.A.F03 (antibody, V domains shown, V regions on human Ig constant parts; also called AB134_79) VH: QSLEESGGRLVAPGTPLTLTCTVSGIDLSRYAMGWVRQAPGKGLEYIGIIDDNDITYFATWAKGRFTISKTSTTLGLKITSPTTEDTATYFCARTADYADYSFGLWGPGTLVTVSS VL: DVVMTQTPTSVSEPVGGTVTIKCQASENIGNYLAWYQQRPGQRPKLLIYAASNLASGVPSRFKGSGSGTEYALTISDLESDDAATYYCQCTYDDSEYFVFGGGTEVVVK )
## Output 0.527
